Reference source for all entries: patent US20160296529A1

As shown below, each of these compounds has a reported AUC value.
Experiment: Single dose pharmacokinetics in animals, rabbit
Assay type: in vivo, New Zealand White rabbits
Conditions: male, New Zealand White, plasma, after Formula II 20 mg/kg oral, read-out: exposure (expressed as AUC)
PROPERTY LABEL: AUC (ng·h/mL)

chemical_smiles=Nc1nc2cccc(-c3ccc(CN4CCS(=O)(=O)CC4)cc3)n2n1 obs_value=10000
chemical_smiles=O=C(Nc1nc2cccc(-c3ccc(CN4CCS(=O)(=O)CC4)cc3)n2n1)C1CC1 obs_value=26000

====

Test: Single dose pharmacokinetics in human
Format: in vivo
Conditions: oral; human plasma; single dose (10-200 mg) of Formula II as capsules; read-out: mean apparent terminal elimination half-life
Method: Serial blood samples were collected over 72 h to determine plasma concentrations of the compounds according to Formula II and Formula I using a validated liquid chromatography-mass spectrometry/mass spectrometry (LC-MS/MS) method with a limit of quantification of 1.00 ng/mL. PK parameters were assessed using a statistical analysis package (WinNonLin (Pharsight, Sunnyvale, Calif.: CA 94086, USA). […]
# half-life values compiled below
PROPERTY LABEL: half-life

chemical_smiles=O=C(Nc1nc2cccc(-c3ccc(CN4CCS(=O)(=O)CC4)cc3)n2n1)C1CC1 obs_value="5 to 8 h"
chemical_smiles=Nc1nc2cccc(-c3ccc(CN4CCS(=O)(=O)CC4)cc3)n2n1 obs_value="21 to 27 h"

====

Molecular target: Recombinant human JAK1 catalytic domain (Homo sapiens)
Construct: amino acids 866-1154; catalog number PV4774; purchased Invitrogen PV4774
Sequence (P23458 866-1154): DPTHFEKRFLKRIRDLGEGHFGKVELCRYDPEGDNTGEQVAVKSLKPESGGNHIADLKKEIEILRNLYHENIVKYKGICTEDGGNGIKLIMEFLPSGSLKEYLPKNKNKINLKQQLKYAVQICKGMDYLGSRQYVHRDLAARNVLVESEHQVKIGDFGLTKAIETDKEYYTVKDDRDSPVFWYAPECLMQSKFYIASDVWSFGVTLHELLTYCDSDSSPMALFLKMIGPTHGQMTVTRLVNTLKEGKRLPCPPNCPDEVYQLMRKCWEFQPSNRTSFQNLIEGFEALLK
Test: JAK1 Ulight-JAK1 peptide assay
Type: biochemical
Conditions: average; read-out: IC50 (average)
PROPERTY LABEL: IC50 (nM)

molecule="Nc1nc2cccc(-c3ccc(CN4CCS(=O)(=O)CC4)cc3)n2n1 [Formula I]" obs_value=307

====

Test: Single dose pharmacokinetics in animals, rat
Type: in vivo, Sprague-Dawley rats
Conditions: Sprague-Dawley, plasma, male, Formula I 180 mg/kg single oral dose, read-out: AUC
PROPERTY LABEL: AUC

chemical_smiles=Nc1nc2cccc(-c3ccc(CN4CCS(=O)(=O)CC4)cc3)n2n1 obs_value="376 µg·h/mL"

====

Assay: Single dose pharmacokinetics in animals, dog
Assay type: in vivo, Beagle dogs
Conditions: male, Beagle, plasma, after Formula II 15 mg/kg oral, read-out: exposure (expressed as AUC)
Description: Pharmacokinetic studies were performed in various animal species dosed with the compound according to Formula II to determine the exposure to the compound according to Formula I as well as its apparent terminal half life (T1/2), when possible. […] Plasma concentrations of the compound according to Formula I and of the compound according to Formula II were determined by an LC-MS/MS method with a limit of quantification ≦10.0 ng/mL for both Formula I and Formula II for all species. […]
PROPERTY LABEL: AUC (ng·h/mL)

compound="Nc1nc2cccc(-c3ccc(CN4CCS(=O)(=O)CC4)cc3)n2n1 [Formula I]" property_label=AUC obs_value=10600
compound="O=C(Nc1nc2cccc(-c3ccc(CN4CCS(=O)(=O)CC4)cc3)n2n1)C1CC1 [Formula II]" property_label=AUC obs_value=44900

====

Assay: Single dose pharmacokinetics in animals, rat
Type: in vivo, Sprague-Dawley rats
Conditions: Sprague-Dawley, plasma, male, Formula I 60 mg/kg single oral dose, read-out: AUC
PROPERTY LABEL: AUC (µg·h/mL)

chemical_smiles=Nc1nc2cccc(-c3ccc(CN4CCS(=O)(=O)CC4)cc3)n2n1 property_label=AUC obs_value=102
